Test: quantification of drug in resected tumors, HPLC-MS/MS
Format: in vivo, NSG mice
Details: NSG, mouse, tumor, 30 mg/kg; 1 h post the last dose, 7 days once daily, average with standard deviation; read-out: Buparlisib in tumor tissue
Excerpt: After 7 days of treatment, we observe a ~40% decrease in tumor volume. b Quantification of drug in tumors resected from mice treated in our PD study. […] Using Highperformance liquid chromatography-mass spectrometry (HPLC-MS/MS), buparlisib and WNT974 were quantified as nanograms of drug per gram of tumor tissue (ng/g). […] LOQ limit of quantitation c As TMD-231 cells have a known propensity to metastasize to the lung, we assessed the effect of the combination therapy on the growth of lung metastases.
Attribute measured: concentration at 1 h (ng/g)
Dear colleague, please return just the value in ng/g, with no unit written.

Any idea what its concentration at 1 h is? The compound is Nc1cc(C(F)(F)F)c(-c2cc(N3CCOCC3)nc(N3CCOCC3)n2)cn1 [buparlisib]
3590

* * *

assay: quantification of drug in resected tumors, HPLC-MS/MS; format: in vivo, NSG mice; conditions: NSG, mouse, tumor, 3 mg/kg; 7 h post the last dose, 7 days once daily, average with standard deviation; read-out: WNT974 in tumor tissue
Attribute measured: concentration at 7 h (ng/g)
Kindly answer with a numeric value in ng/g, unit omitted.

Consider the compound shown here: Cc1cc(-c2ncc(CC(=O)Nc3ccc(-c4cnccn4)cn3)cc2C)ccn1 [WNT974] What is its recorded concentration at 7 h?
8.34
